This collection of values is drawn from PubChem BioAssay (NCATS).

# Tested on: Tov-21-G
# procedure_text: Primary qHTS to identify gynecologic anti-cancer compounds using libraries of approved drugs and bioactive compounds (AID 1345084); note: nearly all actives have a fitted effect of over 55% in size
# measurement_conditions: Gynecologic cancer cell panel viability, ATPlite luminescence, 48 h; series mostly up to 57.5 µM
# Excerpt: National Center for Advancing Translational Sciences [NCATS] Assay Overview: Chemotherapeutic drug responses vary from cancer to cancer and from patient to patient. […] ATPlite is a luminescence based assay reliant on the conversion of a luciferase substrate to light in the presence of ATP. As a cytotoxic compound will suppress growth and decrease the number of cells, the concentration of ATP will decrease, and less light signal will be detected in the well. […]
Results filed as inconclusive are left out. Active and inactive are the calls of the source. Calls come from the whole dose curve; as a rule, active = well fitted cell-killing curve with a large enough effect; inconclusive = small, poorly fitted or top-dose-only effect, or effect the other way; inactive = flat fitted curve, though single readings scatter.
Classes used: active, inactive

compound	discrete_label
CNCCCC1(c2ccccc2)OC(C)(C)c2ccccc21 (configuration not stated)	inactive
COc1ccc(C2(CNC(=O)c3ccc(NC(=O)c4ccco4)cc3)CCOCC2)cc1	inactive
COc1cc(NC(=O)c2cc(C3CC3)on2)c(OC)cc1Cl	inactive
Fc1ccc(-n2cc(CCCCN3CCC4(CC3)OCc3ccccc34)c3ccccc32)cc1	inactive
Cc1cc2sc(NC(=O)Cc3ccccc3)nc2cc1Cl	inactive
O=C(Nc1cnc(Cl)nc1)c1ccc(F)c(F)c1	inactive
COC1CC(=O)C23C(=O)NC(CC(C)C)C2C(C)C(C)=CC3/C=C(\C)CCCC1O (configuration not stated)	inactive
Cc1cc(C)c(-n2cc(C)c3c(Cl)nc(C)nc32)c(C)c1	inactive
O=C(Nc1ccccc1)c1ccc(Nc2nnc(-c3ccc(O)cc3)c3ccccc23)cc1	inactive
Nc1ncnc2c1c(-c1ccc(Cl)cc1)nn2-c1cccc(-c2cnnn2Cc2cccc(-c3ccccc3)c2)c1	inactive
CC(=O)O[C@@H]1CC[C@@]2(C)[C@H](CC[C@@H]3[C@@H]2C[C@H](OC(C)=O)[C@]2(C)[C@@H](C(C)=O)CC[C@@H]32)C1	inactive
N#Cc1cnc2c(Cl)cc(NCc3cn(CCN4CCCCCC4)nn3)cc2c1Nc1ccc(F)c(Cl)c1	inactive
CC(F)(F)CN1CCOc2c(nn(-c3ccccc3Cl)c2-c2ccc(Cl)cc2)C1=O	inactive
CO[C@H]1O[C@@H]2O[C@@]3(C)CCC4[C@H](C)CCC([C@H]1C)[C@]42OO3 (some centres not stated)	inactive
N#Cc1cc(-c2ccnc(Nc3ccc(N4CCOCC4)cc3)n2)ccc1OC1CCOCC1	inactive
C=C1CC2[C@@]3(C)C=CC(=O)C(C)(C)C3=C(O)C(=O)[C@@]2(C)C2(C(=O)OC)C(=O)C(C)OC(=O)[C@@]12C (some centres not stated)	inactive
CC1OC(=O)C[C@@H]2C(C(=O)O)=CO[C@@H](O[C@H]3O[C@H](CO)[C@@H](O)[C@H](O)[C@H]3O)[C@H]12 (some centres not stated)	inactive
CC1=CC2/C=C(\C)CCC(O)C/C=C/C(=O)OC23C(=O)NC(CC(C)C)C3C1C (configuration not stated)	inactive
Cc1cc(N2CCN(C(=O)Oc3ccc(-c4ccccc4)cn3)CC2)c2ccccc2n1	inactive
CCC(C)/C=C(C)/C=C/C1=CC2=C(Cl)C(=O)C(C)(OC(C)=O)C(=O)C2(O)C(OC)O1 (configuration not stated)	inactive
C=CC(=O)N1CCC[C@@H](n2nc(-c3cccc(C(=O)Nc4ccc(C(C)C)c(C)c4)c3)c3c(N)ncnc32)C1	active
C[C@H](Nc1cc2c(-c3ccc4c(c3)OCO4)noc2cn1)c1ccccc1	inactive
CCC(C)C(=O)OC12C(OC(C)=O)C(C)C3(O)C(C=C(CO)CC4(O)C(=O)C(C)=CC43)C1C2(C)C (configuration not stated)	inactive
COc1c(C(C)C)c(O)c(O)c2c1C(OC)[C@H]1OC(=O)[C@@]23CCCC(C)(C)[C@H]13 (some centres not stated)	inactive
CC(=O)C1(C)CCC2C3C=C(C)C4=CC(=O)CCC4(C)C3CCC21C (configuration not stated)	inactive
CC(=O)OC/C(=C/C(=O)O)CC[C@@H]1C(C=O)=CC[C@@H]2C(C)(C)CCC[C@@]12C	inactive
Cc1cc(-c2nc3cc(F)ccc3s2)ccc1NC(=O)[C@@H](N)CCCCN	active
CCc1cnc(N2CCC(c3nc(COc4ccc(-n5cnnn5)cc4)cs3)CC2)nc1	inactive
Cc1c(C(=O)Nc2ccc(N3CCC(N4CCOCC4)CC3)c(C#N)c2)cnn1-c1ccc(Cl)cc1	inactive
CC[C@@H](Nc1c(Nc2cccc(C(=O)N(C)C)c2O)c(=O)c1=O)c1cc(C(C)C)co1	inactive
O=C(NCCCCN1CCN(c2cccc(Cl)c2Cl)CC1)c1cc2ccccc2s1	inactive
COc1ccc([C@H](Cc2ccncc2)c2ccccc2)cc1OC1CCCC1	inactive
